study target: MAGL (Homo sapiens (Human))
Sequence (Q99685 whole entry): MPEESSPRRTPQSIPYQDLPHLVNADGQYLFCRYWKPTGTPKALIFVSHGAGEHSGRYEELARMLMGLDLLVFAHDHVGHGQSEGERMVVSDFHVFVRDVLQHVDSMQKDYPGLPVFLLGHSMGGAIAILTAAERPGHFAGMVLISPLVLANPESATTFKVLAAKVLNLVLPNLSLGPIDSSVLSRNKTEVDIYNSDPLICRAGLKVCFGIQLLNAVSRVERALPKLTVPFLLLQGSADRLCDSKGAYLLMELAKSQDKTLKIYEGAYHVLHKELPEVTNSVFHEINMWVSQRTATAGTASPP
experiment notes: In vitro competitive activity-based protein profiling, human proteomes (prefrontal cortex or PC3 cell membrane fractions)
Assay type: biochemical
condition label: 1 μM, human proteome; read-out: MAGL % inh. 1 μM (human)
The entries below come with measured inhibition at 1 µM values attached.

[in] For CS(=O)(=O)Nc1ccn(C(=O)N2CCC(Oc3ccc(Cl)c(C4CCCC4)c3)CC2)n1 , write its inhibition at 1 µM.
[out] > 75%

[in] For CS(=O)(=O)Nc1ccn(C(=O)N2CCN(Cc3ccc(Cl)c(N4CC5CN(C(N)=O)CC5C4)c3)CC2)n1 (stereo not shown) , write its inhibition at 1 µM.
[out] > 75%

[in] For CS(=O)(=O)Nc1ccn(C(=O)N2CCN(Cc3cccc(C(F)(F)F)c3Cl)CC2)n1 , write its inhibition at 1 µM.
[out] > 75%

[in] For CC(=O)Nc1ccn(C(=O)N2CCC3(CCCN3C(=O)c3ccc(C#N)c(C4CC4)c3)CC2)n1 , write its inhibition at 1 µM.
[out] > 75%
